From: patent US6410775

What IC50 was measured for each of the following?
biological target: ACA-6501 aPL antibody; assay: competitive ELISA I50; antibody not given, ACA-6501 serum on CL/β2-GPI assumed (Ex. 4B)
Square brackets hold non-standard residues; d marks the D form. Ends that are not written are not given here. Phg = N[C@H](C(=O)O)c1ccccc1; NMeV = CN[C@H](C(=O)O)C(C)C; Aib = CC(C)(N)C(=O)O
Answers without a unit are incomplete; give the number and then its unit.

Input: Could you share which IC50 value was measured for CLG[NMeV]LGKLC (not fully specified (bridges); cysteine pairing not given here) [3G3 N-Me amino acids 4: CLG-nV-LGKLC] ?
Output: 220 µg/mL

Input: Tell me the measured IC50 of CLG[Aib]LGKLC (not fully specified (bridges); printed as CLG-aiB-LGKLC; cysteine pairing not given here) [3G3 conformational scan 27: CLG-aiB-LGKLC] , please.
Output: 110 µg/mL

Input: IC50 lookup needed for CLGVLGKLC (cyclic thioether in place of the disulfide) [CCTE, LJP 698 (cyclic thioether analog of 3G3, C-LGVLGKL-C)] , thanks.
Output: 110 µg/mL

Input: Can you share its IC50? I mean this binder: [dP]CLGVLGKLC (not fully specified (bridges); cysteine pairing not given here) [3G3 D amino acids 1: dP-…]
Output: 120 µg/mL

Input: Requested read-out: IC50. Entry: C[Phg]GVLGKLC (not fully specified (bridges); cysteine pairing not given here) [3G3 conformational scan 18: C-pG-GVLGKLC]
Output: 130 µg/mL
